Test: Clearance in rat at 10 ug/kg, iv
Format: ADME, organism-based
Conditions: in vivo, 0.01 mg/kg

| Compound | U | clearance |
| --- | --- | --- |
| C=C1/C(=C\C=C2/CCC[C@]3(C)[C@@H]([C@H](C)OCCC(C)(C)O)CC[C@@H]23)C[C@@H](O)C[C@@H]1O [MAXACALCITOL] | mL/min/kg | 20.9 |

----------
Target: Vitamin D3 receptor (Gallus gallus)
Assay: Binding affinity to chick VDR
Measured Activity of individual entries

| Molecule | Experimental system | Activity, % |
| --- | --- | --- |
| C=C1/C(=C\C=C2/CCC[C@]3(C)C([C@H](C)O)=CCC23)C[C@@H](O)C[C@@H]1O (some centres not stated) | Vitamin D3 receptor (Gallus gallus) | 0.32 |
| C=C1/C(=C\C=C2/CCC[C@]3(C)C([C@H](C)OCC(=O)NCC(C)(C)C)=CCC23)C[C@@H](O)C[C@@H]1O (some centres not stated) | Vitamin D3 receptor (Gallus gallus) | 18 |
| C=C1/C(=C\C=C2/CCC[C@]3(C)C([C@H](C)OCC(=O)O)=CCC23)C[C@@H](O)C[C@@H]1O (some centres not stated) | Vitamin D3 receptor (Gallus gallus) | 0.04 |
| C=C1/C(=C\C=C2/CCC[C@]3(C)C([C@H](C)OCC(=O)OC(C)(C)C)=CCC23)C[C@@H](O)C[C@@H]1O (some centres not stated) | Vitamin D3 receptor (Gallus gallus) | 40.1 |
| C=C1/C(=C\C=C2/CCC[C@]3(C)C([C@H](C)OCC(=O)OC(C)(CC)CC)=CCC23)C[C@@H](O)C[C@@H]1O (some centres not stated) | Vitamin D3 receptor (Gallus gallus) | 45.1 |
| C=C1/C(=C\C=C2/CCC[C@]3(C)[C@@H]([C@H](C)CCCC(C)(C)O)CC[C@@H]23)C[C@@H](O)C[C@@H]1O | Vitamin D3 receptor (Gallus gallus) | 100 |
| C=C1/C(=C\C=C2/CCC[C@]3(C)C([C@H](C)OCC(=O)NCC(F)(F)C(F)(F)F)=CCC23)C[C@@H](O)C[C@@H]1O (some centres not stated) | Vitamin D3 receptor (Gallus gallus) | 34.4 |
